- assay_system: T1, C-terminal truncated RSV F protein, secreted from recombinant baculovirus-infected cells (respiratory syncytial virus (strain not …, UniProt P03420 26-526))
- T1 construct: also called F antigen of RSV
- T1 sequence (P03420 26-526): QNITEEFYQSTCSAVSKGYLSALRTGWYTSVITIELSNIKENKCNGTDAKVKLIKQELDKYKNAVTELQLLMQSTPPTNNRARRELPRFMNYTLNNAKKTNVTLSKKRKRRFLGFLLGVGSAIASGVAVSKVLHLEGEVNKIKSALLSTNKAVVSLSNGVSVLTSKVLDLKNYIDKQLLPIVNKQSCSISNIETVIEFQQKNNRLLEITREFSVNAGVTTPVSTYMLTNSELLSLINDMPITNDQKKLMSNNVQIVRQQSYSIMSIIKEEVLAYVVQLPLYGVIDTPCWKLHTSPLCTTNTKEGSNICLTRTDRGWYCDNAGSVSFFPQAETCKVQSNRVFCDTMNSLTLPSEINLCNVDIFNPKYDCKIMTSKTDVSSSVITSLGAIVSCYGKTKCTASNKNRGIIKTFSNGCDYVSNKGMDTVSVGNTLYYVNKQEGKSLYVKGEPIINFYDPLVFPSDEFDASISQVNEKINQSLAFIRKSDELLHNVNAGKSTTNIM
- assay_details: SPR (BIAcore), F protein immobilized, Fab injected
readout_name: koff

binder	meas_value
Clone 10 (Fab) (Fab, V domains shown) VH: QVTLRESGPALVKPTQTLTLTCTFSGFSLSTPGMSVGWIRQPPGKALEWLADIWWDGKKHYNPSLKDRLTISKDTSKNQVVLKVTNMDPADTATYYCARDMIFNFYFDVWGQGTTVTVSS VL: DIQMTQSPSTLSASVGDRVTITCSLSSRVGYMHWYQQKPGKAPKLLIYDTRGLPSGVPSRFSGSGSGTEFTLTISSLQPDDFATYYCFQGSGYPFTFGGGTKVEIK	0.000299 s⁻¹
Clone 14 (Fab) (Fab, V domains shown) VH: QVTLRESGPALVKPTQTLTLTCTFSGFSLSTAGMSVGWIRQPPGKALEWLADIWWDDKKHYNPSLKDRLTISKDTSKNQVVLKVTNMDPADTATYYCARDMIFNWYFDVWGQGTTVTVSS VL: DIQMTQSPSTLSASVGDRVTITCSPSSRVGYMHWYQQKPGKAPKLLIYDTYRHSSGVPSRFSGSGSGTEFTLTISSLQPDDFATYYCFQGSGYPFTFGGGTKVEIK	0.00025 s⁻¹
Clone 2 (Fab) (Fab, V domains shown) VH: QVTLRESGPALVKPTQTLTLTCTFSGFSLSTAGMSVGWIRQPPGKALEWLADIWWDDKKDYNPSLKSRLTISKDTSKNQVVLKVTNMDPADTATYYCARDMIFNWYFDVWGQGTTVTVSS VL: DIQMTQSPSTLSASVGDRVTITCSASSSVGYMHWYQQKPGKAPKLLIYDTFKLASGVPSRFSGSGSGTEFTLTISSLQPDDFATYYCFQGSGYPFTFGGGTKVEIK	0.000422 s⁻¹
Clone 9 (Fab) (Fab, V domains shown) VH: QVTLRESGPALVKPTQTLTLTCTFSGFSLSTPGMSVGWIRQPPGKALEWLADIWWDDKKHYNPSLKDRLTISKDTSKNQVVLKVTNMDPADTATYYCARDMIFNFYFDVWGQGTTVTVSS VL: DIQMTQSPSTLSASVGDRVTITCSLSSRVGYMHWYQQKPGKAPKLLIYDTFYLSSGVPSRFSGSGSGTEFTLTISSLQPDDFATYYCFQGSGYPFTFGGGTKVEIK	0.000282 s⁻¹
